tested on: DU-145 prostate; assay: NCI tumour cell line growth inhibition, 48 h
quantityName: TGI

Recorded results for 3 molecules are shown here.
[
  {
    "molecule": "CCCCCCNc1n[nH]c(=O)c2c1nnn2Cc1ccccc1",
    "assayedSystem": "DU-145 prostate",
    "quantityName": "TGI",
    "resultValue": "> 100 µM"
  },
  {
    "molecule": "COc1cc(C(=O)N2CCN(C=O)C2=S)cc(OC)c1OC",
    "assayedSystem": "DU-145 prostate",
    "quantityName": "TGI",
    "resultValue": "56.6 µM"
  },
  {
    "molecule": "N#CC1C(=S)NC(c2ccccc2)=CC12CCCCC2 (centres undefined)",
    "assayedSystem": "DU-145 prostate",
    "quantityName": "TGI",
    "resultValue": "61.5 µM"
  }
]

INPUT: So what does the record say about TGI for CN1CCc2c([nH]c3ccccc23)C1 ?
OUTPUT: > 100 µM

----------
tested on: HOP-62 NSCLC; assay: NCI tumour cell line growth inhibition, 48 h
quantityName: TGI (µM)
Just the number please, in µM, no unit attached.

[
  {
    "compound": "NC(N)=N/N=C/c1c(-c2ccsc2)nc2sccn12",
    "TGI [µM]": 27.4
  },
  {
    "compound": "COc1cc(C2c3cc4c(cc3OC(N3CCCCC3)C2C)OCO4)cc(OC)c1O (stereo unspecified)",
    "TGI [µM]": 25.9
  },
  {
    "compound": "COc1cccc(F)c1C(=O)c1cnc(NC2CCN(S(C)(=O)=O)CC2)nc1N",
    "TGI [µM]": 23
  },
  {
    "compound": "Nc1nn2cc(F)cnc2c1C(=O)Nc1cncc(F)c1N1CCC(C(=O)N2CCN(C3COC3)CC2)CC1",
    "TGI [µM]": 3.98
  },
  {
    "compound": "COc1cccc(C2c3cc4c(cc3OC(N3CCCCC3)C2C)OCO4)c1O (stereo unspecified)",
    "TGI [µM]": 13.7
  }
]

INPUT: I would be grateful if you could share the reported TGI for COc1ccccc1/C=N\N/C(N)=N\N=C\c1ccccc1OC .
OUTPUT: 6.68

INPUT: Which TGI is reported for this compound? O=C1Sc2cc3ccccc3cc2C(=O)Sc2ccc(Br)cc21
OUTPUT: 18.3

INPUT: What measured TGI goes with C[C@H]1[C@H]2[C@H]3CC[C@@H]4[C@@]5(C)CC[C@H](O)C(C)(C)[C@@H]5CC[C@@]4(C)[C@]3(C)C[C@H](O)[C@@]2(C)C[C@H]2O[C@]21C ?
OUTPUT: 57.7

INPUT: State the recorded TGI for this entry: Brc1ccc2[nH]cc(-c3csc(-c4c[nH]c5ccccc45)n3)c2c1
OUTPUT: 16.4

----------
system: COLO 205 colon; test: NCI tumour cell line growth inhibition, 48 h
quantityName: TGI

[
  {
    "compound": "CC12C/C(=C\\c3ccccc3)C(=O)C3C1CCCC32",
    "quantityName": "TGI",
    "resultValue": "> 100 µM"
  },
  {
    "compound": "O=c1[nH]cnc2c1cnn2Cc1cn(CCCCO)nn1",
    "quantityName": "TGI",
    "resultValue": "> 100 µM"
  },
  {
    "compound": "O=C1C2SC34c5c2c2ccccc2n5CCC3CCCN14 (stereo unspecified)",
    "quantityName": "TGI",
    "resultValue": "> 100 µM"
  },
  {
    "compound": "Brc1ccc2[nH]cc(-c3csc(-c4c[nH]c5ccccc45)n3)c2c1",
    "quantityName": "TGI",
    "resultValue": "7.72 µM"
  },
  {
    "compound": "Cc1c(O)ccc2c(O)c(NC(=O)c3ccc4c(c3)CCC(C)(C)O4)c(=O)oc12",
    "quantityName": "TGI",
    "resultValue": "> 100 µM"
  },
  {
    "compound": "CCN(CC)CCCN1CCc2c([nH]c3ccccc23)C1c1cccnc1 (stereo unspecified)",
    "quantityName": "TGI",
    "resultValue": "> 100 µM"
  }
]

INPUT: Can you look up the measured TGI of CC(=O)CCn1c(=S)sc2ccccc21 for me?
OUTPUT: > 100 µM

INPUT: Entry CC1(C)COC(C2(C)C(=O)C=C(c3ccccc3)c3ccccc32)=N1 (stereo unspecified) has what TGI?
OUTPUT: > 100 µM

INPUT: // TGI lookup, key: O=c1oc2ccc3ccccc3c2cc1-c1nc2ccccc2s1
OUTPUT: > 100 µM

INPUT: Quick one: TGI of CC/C=C\C[C@H](O)C/C=C1/C(=O)C(Cl)=C[C@@H]1C/C=C\CCCC(=O)OC ?
OUTPUT: 1.69 µM

INPUT: Request the reported TGI associated with COc1cc(OC)c2nc(C)c(CCCl)c(Cl)c2c1
OUTPUT: > 100 µM

From: PubChem BioAssay (NCI)
